Test system: Substance P Induced Plasma Extravasation
Test: Antagonism of substance P induced plasma extravasation in guinea-pigs
Format: in vivo, guinea-pig
Conditions: Cavia porcellus, po, 0.5 h; p.o., 1 hour prior to substance P; trachea; read-out: lowest active dose (LAD), trachea
// reported minimal effective dose per item
Unit mg/kg implied. Number only.

For orientation, consider the following solved cases.
[[record]]
compound = "COC(=O)c1cnc2n1CCc1ccccc1C2=C1CCN([C@H]2CCN(C(=O)c3cc(C(F)(F)F)cc(C(F)(F)F)c3)[C@@H](Cc3ccccc3)C2)CC1 (racemic) [Compound 17]"
unit_info = "mg/kg"
observed_measurement = 10

[[record]]
compound = "O=C1Cn2ccnc2C(=C2CCN([C@H]3CCN(C(=O)c4cc(C(F)(F)F)cc(C(F)(F)F)c4)[C@@H](Cc4ccccc4)C3)CC2)c2ccsc21 (relative stereo) [Compound 106]"
unit_info = "mg/kg"
observed_measurement = 10


# evaluate next
Case O=C1Cn2ccnc2C(=C2CCN([C@@H]3CCN(C(=O)c4cc(C(F)(F)F)cc(C(F)(F)F)c4)[C@@H](Cc4ccccc4)C3)CC2)c2ccsc21 (relative stereo) [Compound 107] , Substance P Induced Plasma Extravasation, minimal effective dose recorded as 10
